From: PubChem BioAssay (NCI)

Tested on: SNB-19 CNS
assay summary: NCI-60 one-dose screen, 48 h (100 = growth as untreated, 0 = no growth, -100 = all killed)
assay context: 10 µM unless noted
This is part of a sample that, as a whole, favours compounds with a hit. Of some 83,000 tested, about 20% had one in any assay. Active and inactive are the calls of the source. Rule for the calls: active = growth percent below 10; inactive = the rest.
endpoint label: growth

## Input Tell me the measured growth of `O=C(Cn1c(-c2ccc([N+](=O)[O-])cc2)nc2ccccc21)NNC(=O)c1cccnc1` , please.
## Output 86.5% (inactive)

## Input Repeat for the following compound: `O=C1c2c(c3c4ccc(Br)cc4oc3c3[nH]c4ccccc4c23)C(=O)N1O`
## Output 29.7% (inactive)

## Input // repeat for `COc1cc2c(c(OC)c1OC)-c1ccc(OC)c(=O)cc1[C@@H](NC(=O)CCl)CC2` and report
## Output 39.1% (inactive)

## Input Similarly, `C/C(=C(/c1ccc(Cl)cc1)c1ccc(OCCN2CCCC2)cc1)c1ccc(Cl)cc1` ?
## Output 85.8% (inactive)

## Input Moving on to the next compound: `CC(=O)N(N=Nc1ccccc1)c1cccc2ccccc12`
## Output 106% (inactive)

## Input Now the same for CC1=C(C(=O)OC(C)C)C(c2ccc3c(c2)OCO3)NC(=S)N1 (stereo not given)
## Output 95.4% (inactive)

## Input What about this compound? `Cc1cc(N)c2cc(NC(=O)/C=C\c3ccccc3Cl)ccc2n1`
## Output -86.3% (active)

## Input Also check `COc1cc(-n2cc(-c3cc(O)c(C/C=C(\C)CCC=C(C)C)c(O)c3)nn2)cc2c1O[C@]1(C)CC[C@@H](O)C(C)(C)[C@H]1C2`
## Output 32.5% (inactive)

## Input How about `CCOC(=O)/C=C1\S/C(=N\Nc2cc(=O)[nH]c3ccc(Cl)cc23)N(c2ccccc2)C1=O` ?
## Output 90.6% (inactive)

## Input Okay, and `Cn1cc(-c2csc(-c3c[nH]c4ccc(Br)cc34)n2)c2cnccc21` ?
## Output -85.5% (active)

----------
Tested on: M14 melanoma
assay summary: NCI-60 one-dose screen, 48 h
assay context: 10 µM unless noted
About 83,000 compounds went through this panel and 20% of them were active in at least one assay; those are over-represented in the sample as a whole. Active and inactive are the calls of the source. How the source made its calls: active means growth percent below 10; inactive means the rest.
Select the correct class. Options are active, inactive and nothing else.

## Input What did the test return for `Cn1cc(-c2csc(-c3c[nH]c4ccc(Br)cc34)n2)c2cnccc21` ?
## Output active

## Input Another compound to check: `CC(C)(C)n1cc(-c2ccnc(NCCNS(=O)(=O)c3cccc(F)c3)c2)c(-c2ccccc2)n1`
## Output inactive

## Input Try `CCOC(=O)c1c2c(n3ccc(C)cc13)C(=O)c1ccccc1C2=O` next.
## Output inactive

## Input Repeat for the following compound: `CCCCNC(=O)Oc1ccc(/C(=C(/CC)Cc2ccccc2)c2ccc(OCCN3CCCCCC3)cc2)cc1`
## Output active

## Input Input `Cc1nnc(-n2c(O)cc(=O)n(-c3ccccc3)c2=S)nc1/C=C/c1ccc(N(C)C)cc1`
## Output inactive

## Input Likewise for `COc1cc(CNS(=O)(=O)c2ccc(C)cc2)ccc1OCc1cn(-c2ccc(Br)cc2)nn1` ?
## Output inactive

## Input Continue with `COC(=O)c1c2c(c(C)[n+]([O-])c1C)C(=O)C=C(NCc1ccc(OC)cc1)C2=O`
## Output active

## Input Same read-out for `CN1CCN(c2ccc(C(=O)Nc3cccc(C#Cc4cccc5[nH]nc(N)c45)c3)cc2C(F)(F)F)CC1` ?
## Output active

## Input Here is the next compound: `COc1ccc2c(c1)[n+]([O-])c(C(=O)/C=C/C=C(\Cl)c1cc(OC)c(OC)c(OC)c1)c(C)[n+]2[O-]`
## Output inactive

## Input Next record, please: `COc1ccc(/C(C)=C(/c2ccc(OCCCN(C)C)cc2)c2ccc(OC(=O)Cc3ccccc3)cc2)cc1`
## Output active

## Input Proceed to `COC(=O)[C@]1(C)CCC[C@]2(C)[C@H]3C[C@H]4C(C(C)C)=C[C@]3(CC[C@H]21)[C@H]1[C@@H]4[C@@H](OCCC#N)CC[C@@H]1OCCC#N`
## Output inactive

## Input Another: `CN(CCn1sc(=O)n(Cc2ccccc2)c1=O)Cc1ccc2c(Cl)cc(Cl)c(O)c2n1`
## Output inactive

## Input Same question for `O=C(CSc1nc2sc3c(c2c(=O)n1-c1ccccc1)CCCCC3)N/N=C/c1ccc(F)cc1` please.
## Output inactive

## Input What do we get for `S=C(Nc1ccc(-c2nc(N3CCOCC3)c3cccn3n2)cc1)Nc1cccnc1` ?
## Output inactive

## Input Proceed to Cc1cccc(N2CCN(CC(O)COc3ccc(Cl)cc3)CC2)c1 (stereo unspecified)
## Output inactive

## Input Here is the next compound: `Cc1cccc2c1NC(=O)C2(c1ccc(O)cc1)c1ccc(O)cc1`
## Output inactive
